Sourced from patent US5710151A

# study-target: muscarinic receptors
# assay-summary: inhibition of binding of 3H-oxotremorine-M to muscarinic receptors
# conditions-used: 3 nM 3H-oxotremorine-M, rat cerebral cortical membranes, pH 7.4, 15 min, 25° C.; read-out: Inhibition of ^3 H-Oxo
Counter-ions that a name gives are not always drawn.
Binarize IC50 at 2 nM; below is true (1), at or above is false (0).

Q: Take the compound CCCCCCSc1nsnc1[C@@H]1CN2CCC[C@@H]1C2 (relative stereo) [Compound 29] and say whether its IC50 is less than 2 nM.
Ans: true (1)

Q: I wonder whether CC(C)CCCSc1nsnc1[C@H]1CN2CCC[C@H]1C2 [Compound 157, L-tartrate] has IC50 below 2 nM. Can you tell?
Ans: false (0)

Q: Dear colleague, could you confirm whether IC50 of CCCCOc1nsnc1[C@@H]1CN2CCC[C@@H]1C2 (relative stereo) [Compound 120] falls below 2 nM? Thanks.
Ans: true (1)

Q: Record CCCCSc1nsnc1[C@@H]1CN2CCC[C@@H]1C2 (relative stereo) [Compound 30] : is its IC50 strictly below 2 nM?
Ans: true (1)

Q: Record c1csc(CCCSc2nsnc2C2CN3CCC2CC3)c1 (stereo not drawn) [Compound 104, fumarate] : is its IC50 strictly below 2 nM?
Ans: false (0)

Q: Could you please tell me whether IC50 recorded for CCCCCCOc1nsnc1[C@@H]1CN2CCC[C@@H]1C2 (relative stereo) [Compound 122] is less than 2 nM?
Ans: false (0)

----------
# IC50 per record follows
# study-target: muscarinic receptors
# assay-summary: inhibition of binding of 3H-oxotremorine-M to muscarinic receptors
# conditions-used: 3 nM 3H-oxotremorine-M, rat cerebral cortical membranes, pH 7.4, 15 min, 25° C.; read-out: Inhibition of ^3 H-Oxo
Structures can show the parent of a compound that is named as a salt.
Give just the numeric value; nM need not be written.

Here is how some compounds turned out for IC50.
compound: CCOc1nsnc1[C@@H]1CN2CCC[C@@H]1C2 (relative stereo) [Compound 19]
uom: nM
IC50: 1.2
//
compound: CCOc1nsnc1C1CN2CCC1CC2 (centres unmarked) [Compound 9, fumarate]
uom: nM
IC50: 2.1
//
compound: CCCSc1nsnc1C1CN2CCC1CC2 (centres unmarked) [Compound 53, oxalate]
uom: nM
IC50: 0.9
//
compound: FC(F)(F)CCCSc1nsnc1[C@H]1CN2CCC[C@H]1C2 [Compound 167, oxalate]
uom: nM
IC50: 0.76

Lookup result for CCCSc1nsnc1[C@@H]1CN2CCC[C@@H]1C2 (relative stereo) [Compound 58] ; measured IC50: 0.8

Value of IC50 reported for the compound c1ccc(OCCSc2nsnc2C2CN3CCC2CC3)cc1 (centres unmarked) [Compound 102, fumarate] is 4.5

----------
# study-target: muscarinic receptors
# assay-summary: inhibition of binding of 3H-oxotremorine-M to muscarinic receptors
# conditions-used: 3 nM 3H-oxotremorine-M, rat cerebral cortical membranes, pH 7.4, 15 min, 25° C.; read-out: Inhibition of ^3 H-Oxo
Counter-ions that a name gives are not always drawn.
Property: pIC50; scope: individual molecules
As a rule, pIC50 stands for the negative log10 of the concentration, concentration in M.

# annotated cases, reported pIC50 shown
molecule: CCCSc1nsnc1[C@H]1CN2CCC[C@H]1C2 [Compound 113, L-tartrate]
reported-value: 9.05
--
molecule: CCCCSc1nsnc1C1CN2CCC1CC2 (stereo not drawn) [Compound 13, fumarate]
reported-value: 8.72
--
molecule: Cn1nnnc1SCCCCSc1nsnc1C1CN2CCC1CC2 (stereo not drawn) [Compound 106]
reported-value: 8.55

What the record says about N#Cc1ccc(CSc2nsnc2[C@@H]2CN3CCC[C@@H]2C3)cc1 (relative stereo) [Compound 82] : pIC50 is 8.89

Data point: CCCSc1nsnc1[C@@H]1CN2CCC[C@@H]1C2 [Compound 114, D-tartrate] ; pIC50 = 9.35

// CCCCSc1nsnc1[C@@H]1CN2CCC[C@@H]1C2 [Compound 111, L-tartrate] : pIC50 value = 9.00

The value of pIC50 measured for the molecule CC(C)CCSc1nsnc1[C@@H]1CN2CCC[C@@H]1C2 (relative stereo) [Compound 77] turned out to be 8.57

CSc1nsnc1[C@@H]1CN2CCC[C@@H]1C2 (relative stereo) [Compound 74] yielded pIC50 of 8.85

Note to self: pIC50 recorded for CCCCSc1nsnc1C1CN2CCC1CC2 (single isomer, unassigned) [Compound 56] was 9.40

Note to self: pIC50 recorded for CCCCOc1nsnc1C1CN2CCC1CC2 (stereo not drawn) [Compound 46, oxalate] was 8.80

For reference, reported pIC50 for CC(C)CCCSc1nsnc1[C@@H]1CN2CCC[C@@H]1C2 (relative stereo) [Compound 76] stands at 8.11

Item: CCSc1nsnc1[C@@H]1CN2CCC[C@@H]1C2 (relative stereo) [Compound 32] | pIC50: 8.89
